B1: EHEE_rd4_0726 (parent)
chain: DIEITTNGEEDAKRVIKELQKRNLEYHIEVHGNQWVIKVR

Variants of: B1
Experiment: folding stability dG (cDNA display proteolysis); higher = more stable
Details: PBS, room temperature
Assignment: determine reported folding stability dG for the given variants.
Give bare numbers, in kJ/mol.

> print(dat)
   variant.code        property.label  display.unit  reported.measurement
1          H31C  folding stability dG        kJ/mol                  9.67
2          Q20D  folding stability dG        kJ/mol                   9.6
3          R40C  folding stability dG        kJ/mol                  12.4
4           G8M  folding stability dG        kJ/mol                  7.06
5          K38E  folding stability dG        kJ/mol                  2.33

Please give folding stability dG for each item listed below.
1. I16F
2. L24T
3. A12Y
4. L24G
5. Q20N
6. N23Y

1. 4.25
2. 4.76
3. 7.62
4. 1.92
5. 9.28
6. 7
